# system-tested: T1, untagged human CD47 protein (Sinobiological Inc) (human, UniProt Q08722 19-141)
# T1 construct: Bought
# assay-comment: competition ELISA: inhibition of His-tagged SIRPα binding to coated human CD47
assay-endpoint: IC50 (mg/L)
Dear colleague, please return just the value in mg/L, with no unit written.

Some solved cases for reference:
# binder, IC50 [mg/L]
measured = [
    ("11A1H5-IgG1 (antibody, V domains shown, Humanised version of clone 1-1-A1, IgG1/kappa; also called 1A11H5) VH: QVQLVQSGAEVKKPGASVKVSCKASGYTFTGYVIHWVRQAPGQGLEWMGYINPYNGGTNYAQKFKGRVTLTSDTSTTTAYMELSRLRSEDTAVYYCASGGYYTMDYWGQGTLVTVSS VL: DVVMTQSPLSLPVTLGQPASISCRSSQHLEYSNGYSYLHWYQQRPGQSPRLLIYKISNRFSGVPDRFSGSGSGTDFTLKISRVEAEDVGVYYCSQSTHVPYTFGGGTKVEIKR", 0.201),
    ("anti-CD47 clone 1-1-A1_BM IgG1 (antibody, V domains shown) VH: QVQLQQSGPDLKKPGASVKVSCKVSGYTFTNYVIHWVRQKPGQGLEWMGYINPYNDGTKSNEKFKGKATLTSDKSSTSAYMELSSLTSEDTAVYYCASGGYYTMDYWGQGTSVTVSS VL: DVVMTQTPLSLPVTLGDQASISCRSSQHLEYSNGYSYLHWYQQRPGQSPQLLIYKISNRFSGVPDRFSGSGSGTDFTLKISRVEAEDLGVYYCSQSTHVPYTFGGGTKLEIKR", 0.474),
    ("11A1H4-IgG1 (antibody, V domains shown, Humanised version of clone 1-1-A1, IgG1/kappa; also called 1A11H4) VH: QVQLVQSGAEVKKPGASVKVSCKASGYTFTNYVIHWVRQAPGQGLEWMGYINPYNDGTKYNQKFKGRVTLTSDTSTTTAYMELSRLRSDDTAVYYCASGGYYTMDYWGQGTLVASTK VL: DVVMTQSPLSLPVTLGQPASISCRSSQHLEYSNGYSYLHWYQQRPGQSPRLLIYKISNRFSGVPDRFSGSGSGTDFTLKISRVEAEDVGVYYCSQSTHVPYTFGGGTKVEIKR", 0.15),
]

I would be grateful if you could share the reported IC50 for 11A1H11-IgG1 (antibody, V domains shown, Humanised version of clone 1-1-A1, IgG1/kappa; also called 1A11H11) VH: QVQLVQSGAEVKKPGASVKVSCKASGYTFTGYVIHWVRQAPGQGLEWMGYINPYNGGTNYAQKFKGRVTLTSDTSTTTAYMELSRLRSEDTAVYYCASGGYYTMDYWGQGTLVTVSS VL: DVVMTQSPLSLPVTLGQPASISCRSSQHLEYSNGYSYLHWYQQRPGQSPRLLIYKISNRFSGVPDRFSGSGSGTDFTLKISRVEAEDVGVYYCSQGTHVPYTFGGGTKVEIKR .
0.483
